species: Rattus norvegicus; experiment: Selectivity ratio of IC50 for recombinant rat GluN2B receptor to IC50 for recombinant rat GluN2D receptor
measured_parameter: Ratio IC50
Lab note: write the figure by itself, no unit.

Task: Endpoint output: Ratio IC50 of O=C(O)CCC(=O)N1N=C(c2c(-c3ccc(Br)cc3)c3ccccc3[nH]c2=O)CC1c1ccc(F)cc1 (stereo unspecified) . Value?
Output: 26

Task: Follow-up entry: O=C(O)CCC(=O)N1N=C(c2c(-c3cccc(F)c3)c3ccccc3[nH]c2=O)CC1c1ccc(Cl)cc1 (stereo unspecified)
Output: 101

Task: Follow-up entry: O=C(O)CCCC(=O)N1N=C(c2c(-c3ccccc3)c3cc(Cl)ccc3[nH]c2=O)CC1c1ccc([N+](=O)[O-])cc1 (stereo unspecified)
Output: 8

Task: Follow-up entry: O=C(O)CCC(=O)N1N=C(c2c(-c3ccc(F)cc3)c3ccccc3[nH]c2=O)CC1c1ccc(Cl)cc1 (stereo unspecified)
Output: 98

Task: Follow-up entry: O=C(O)CCC(=O)N1N=C(c2c(-c3ccc(Cl)c(F)c3)c3ccccc3[nH]c2=O)CC1c1ccc(Cl)cc1 (stereo unspecified)
Output: 53

Task: Follow-up entry: O=C(O)CCC(=O)N1N=C(c2c(-c3ccc(Br)cc3)c3ccccc3[nH]c2=O)CC1c1ccccc1 (stereo unspecified)
Output: 12

Task: Follow-up entry: O=C(O)CCC(=O)N1N=C(c2c(-c3ccccc3)c3cc(Cl)ccc3[nH]c2=O)CC1c1ccc(C(F)(F)F)cc1 (stereo unspecified)
Output: 13

Task: Follow-up entry: Cc1ccc(-c2c(C3=NN(C(=O)CCC(=O)O)C(c4ccc(Cl)cc4)C3)c(=O)[nH]c3ccccc23)cc1 (stereo unspecified)
Output: 30

Task: Follow-up entry: O=C(O)CCC(=O)N1N=C(c2c(-c3ccc(C(F)(F)F)cc3)c3ccccc3[nH]c2=O)CC1c1ccc(Cl)cc1 (stereo unspecified)
Output: 14

Task: Follow-up entry: O=C(O)CCC(=O)N1N=C(c2c(-c3ccccc3)c3cc(Cl)ccc3[nH]c2=O)CC1c1ccc([N+](=O)[O-])cc1 (stereo unspecified)
Output: 42

Task: Follow-up entry: O=C(O)CCC(=O)N1N=C(c2c(-c3cccc(C(F)(F)F)c3)c3ccccc3[nH]c2=O)CC1c1ccc(Cl)cc1 (stereo unspecified)
Output: 18

Task: Follow-up entry: O=C(O)CCC(=O)N1N=C(c2c(-c3ccc(Cl)c(Cl)c3)c3ccccc3[nH]c2=O)CC1c1ccc(Cl)cc1 (stereo unspecified)
Output: 22

Task: Follow-up entry: NC(=O)CCC(=O)N1N=C(c2c(-c3ccc(Cl)cc3)c3ccccc3[nH]c2=O)CC1c1ccc(Cl)cc1 (stereo unspecified)
Output: 18

Task: Follow-up entry: O=C(O)/C=C/C(=O)N1N=C(c2c(-c3ccc(Br)cc3)c3ccccc3[nH]c2=O)CC1c1ccc(Cl)cc1 (racemic)
Output: 63

Task: Follow-up entry: Cc1cccc(-c2c(C3=NN(C(=O)CCC(=O)O)C(c4ccc(Cl)cc4)C3)c(=O)[nH]c3ccccc23)c1 (stereo unspecified)
Output: 37

Task: Follow-up entry: O=C(O)CCC(=O)N1N=C(c2c(-c3ccc(Cl)cc3)c3ccccc3[nH]c2=O)CC1c1ccc(Cl)cc1 (racemic)
Output: 50

* * *

Please respond with reported Papp for every item in the list.
test system: MDCK; test: Apparent permeability across apical to basolateral side in dog MDCK cells expressing MDR1 at 5 uM after 120 mins by LC-MS/MS analysis; assay type: ADME, cell-based, Canis lupus familiaris; settings: 2 h
API: value field is a number in ×10⁻⁶ cm/s; no unit string.

Task: Endpoint output: Papp of O=C(O)CCC(=O)N1N=C(c2c(-c3ccc(Cl)cc3)c3ccccc3[nH]c2=O)CC1c1ccc(Cl)cc1 (racemic) . Value?
Output: 0.47

Task: Follow-up entry: O=C(CCCF)N1N=C(c2c(-c3ccc(Cl)cc3)c3ccccc3[nH]c2=O)CC1c1ccc(Cl)cc1 (configuration not stated)
Output: 3.88

* * *

tested on: Liver microsomes; test: Intrinsic clearance in human liver microsomes measured per mg of protein at 1 uM by LC-MS/MS analysis; assay type: ADME, Microsome
measured_parameter: CLint (mL/min/mg)
API: value field is a number in mL/min/mg; no unit string.

Task: Endpoint output: CLint of O=C(CCCF)N1N=C(c2c(-c3ccc(Cl)cc3)c3ccccc3[nH]c2=O)CC1c1ccc(Cl)cc1 (configuration not stated) . Value?
Output: 0.04

* * *

biological target: Histamine H2 receptor (Homo sapiens)
Sequence (P25021 whole entry): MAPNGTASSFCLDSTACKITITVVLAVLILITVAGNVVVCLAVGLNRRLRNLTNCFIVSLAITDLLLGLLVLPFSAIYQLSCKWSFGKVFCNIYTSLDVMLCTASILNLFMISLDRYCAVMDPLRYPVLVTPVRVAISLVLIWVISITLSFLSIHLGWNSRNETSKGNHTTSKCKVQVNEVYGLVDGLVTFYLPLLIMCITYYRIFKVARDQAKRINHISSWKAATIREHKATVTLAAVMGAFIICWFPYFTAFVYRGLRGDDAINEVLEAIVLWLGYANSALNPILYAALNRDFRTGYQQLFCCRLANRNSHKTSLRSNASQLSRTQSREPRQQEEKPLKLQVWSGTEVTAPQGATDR
measured_parameter: Ki

Task: Endpoint output: Ki of O=C(O)CCC(=O)N1N=C(c2c(-c3ccc(Cl)cc3)c3ccccc3[nH]c2=O)CC1c1ccc(Cl)cc1 (racemic) . Value?
Output: > 10 µM

* * *

biological target: Glutamate receptor ionotropic, NMDA 2B (Rattus norvegicus); assay: Negative allosteric modulation of recombinant rat GluN2B receptor expressed in Xenopus laevis oocytes at 100 uM by two-electrode voltage clamp method; format: cell-based; conditions: Oocyte
Please respond with reported inhibition for every item in the list.

Task: # value lookup — system Glutamate receptor ionotropic, NMDA 2B (Rattus norvegicus), readout inhibition, item O=C(O)CCC(=O)N1N=C(c2c(O)nc3ccc(Cl)cc3c2-c2ccccc2)CC1c1ccccc1 (stereo not drawn)
Output: < 30%

Task: Follow-up entry: COC(=O)CCCN1N=C(c2c(-c3ccc(Cl)cc3)c3ccccc3[nH]c2=O)CC1c1ccc(Cl)cc1 (stereo not drawn)
Output: < 30%

Task: Follow-up entry: O=C(O)CCC(=O)N1N=C(c2c(-c3ccccc3)c3cc(Cl)ccc3[nH]c2=O)CC1c1ccc(C(=O)O)cc1 (stereo not drawn)
Output: < 30%

Task: Follow-up entry: O=C(CCCF)N1N=C(c2c(-c3ccc(Cl)cc3)c3ccccc3[nH]c2=O)CC1c1ccc(Cl)cc1 (stereo not drawn)
Output: < 30%

Task: Follow-up entry: COC(=O)c1ccc(C2CC(c3c(-c4ccccc4)c4cc(Cl)ccc4[nH]c3=O)=NN2C(=O)CCC(=O)O)cc1 (stereo not drawn)
Output: < 30%

Task: Follow-up entry: O=C(O)/C=C/C(=O)N1N=C(c2c(-c3ccccc3)c3cc(Cl)ccc3[nH]c2=O)CC1c1ccc(Br)cc1 (stereo not drawn)
Output: < 30%

Task: Follow-up entry: COC(=O)CCC(=O)N1N=C(c2c(-c3ccccc3)c3cc(Cl)ccc3[nH]c2=O)CC1c1ccc(Br)cc1 (stereo not drawn)
Output: < 30%

Task: Follow-up entry: O=C(O)CCC(=O)N1N=C(c2c(-c3ccccc3)c3cc(Cl)ccc3[nH]c2=O)CC1c1ccc(Cl)cc1 (stereo not drawn)
Output: < 30%

* * *

Please respond with reported Ratio IC50 for every item in the list.
species on record: Rattus norvegicus; experiment: Selectivity ratio of IC50 for recombinant rat GluN2A receptor to IC50 for recombinant rat GluN2D receptor
Lab note: write the figure by itself, no unit.

Task: Endpoint output: Ratio IC50 of COc1ccc(C2CC(c3c(O)nc4ccc(Cl)cc4c3-c3ccccc3)=NN2C(=O)CCC(=O)O)cc1 (centres undefined) . Value?
Output: 9

Task: Follow-up entry: O=C(O)CCC(=O)N1N=C(c2c(-c3ccc(C(F)(F)F)cc3)c3ccccc3[nH]c2=O)CC1c1ccc(Cl)cc1 (centres undefined)
Output: 10

Task: Follow-up entry: O=C(O)CCC(=O)N1N=C(c2c(-c3ccc(Cl)c(F)c3)c3ccccc3[nH]c2=O)CC1c1ccc(Cl)cc1 (centres undefined)
Output: 23

Task: Follow-up entry: O=C(O)CCC(=O)N1N=C(c2c(-c3cccc(C(F)(F)F)c3)c3ccccc3[nH]c2=O)CC1c1ccc(Cl)cc1 (centres undefined)
Output: 11

Task: Follow-up entry: O=C(O)CCC(=O)N1N=C(c2c(-c3ccc(Cl)cc3)c3ccccc3[nH]c2=O)C[C@H]1c1ccc(Cl)cc1
Output: 78

Task: Follow-up entry: O=C(O)CCC(=O)N1N=C(c2c(-c3ccc(Br)cc3)c3ccccc3[nH]c2=O)CC1c1ccc(Br)cc1 (centres undefined)
Output: 33

Task: Follow-up entry: O=C(O)CCC(=O)N1N=C(c2c(-c3ccc(Cl)cc3)c3ccccc3[nH]c2=O)C[C@@H]1c1ccc(Cl)cc1
Output: 23

Task: Follow-up entry: O=C(O)/C=C/C(=O)N1N=C(c2c(-c3ccc(Br)cc3)c3ccccc3[nH]c2=O)CC1c1ccc(Cl)cc1 (racemic)
Output: 23

Task: Follow-up entry: O=C(O)/C=C\C(=O)N1N=C(c2c(-c3ccc(Br)cc3)c3ccccc3[nH]c2=O)CC1c1ccc(Cl)cc1 (centres undefined)
Output: 21

* * *

target: Glutamate receptor ionotropic, NMDA 2A (Rattus norvegicus, UniProt P35439+Q00959); experiment: Negative allosteric modulation of recombinant rat GluN2A receptor expressed in Xenopus laevis oocytes by two-electrode voltage clamp method
Sequence (Q00959 whole entry, one chain of several): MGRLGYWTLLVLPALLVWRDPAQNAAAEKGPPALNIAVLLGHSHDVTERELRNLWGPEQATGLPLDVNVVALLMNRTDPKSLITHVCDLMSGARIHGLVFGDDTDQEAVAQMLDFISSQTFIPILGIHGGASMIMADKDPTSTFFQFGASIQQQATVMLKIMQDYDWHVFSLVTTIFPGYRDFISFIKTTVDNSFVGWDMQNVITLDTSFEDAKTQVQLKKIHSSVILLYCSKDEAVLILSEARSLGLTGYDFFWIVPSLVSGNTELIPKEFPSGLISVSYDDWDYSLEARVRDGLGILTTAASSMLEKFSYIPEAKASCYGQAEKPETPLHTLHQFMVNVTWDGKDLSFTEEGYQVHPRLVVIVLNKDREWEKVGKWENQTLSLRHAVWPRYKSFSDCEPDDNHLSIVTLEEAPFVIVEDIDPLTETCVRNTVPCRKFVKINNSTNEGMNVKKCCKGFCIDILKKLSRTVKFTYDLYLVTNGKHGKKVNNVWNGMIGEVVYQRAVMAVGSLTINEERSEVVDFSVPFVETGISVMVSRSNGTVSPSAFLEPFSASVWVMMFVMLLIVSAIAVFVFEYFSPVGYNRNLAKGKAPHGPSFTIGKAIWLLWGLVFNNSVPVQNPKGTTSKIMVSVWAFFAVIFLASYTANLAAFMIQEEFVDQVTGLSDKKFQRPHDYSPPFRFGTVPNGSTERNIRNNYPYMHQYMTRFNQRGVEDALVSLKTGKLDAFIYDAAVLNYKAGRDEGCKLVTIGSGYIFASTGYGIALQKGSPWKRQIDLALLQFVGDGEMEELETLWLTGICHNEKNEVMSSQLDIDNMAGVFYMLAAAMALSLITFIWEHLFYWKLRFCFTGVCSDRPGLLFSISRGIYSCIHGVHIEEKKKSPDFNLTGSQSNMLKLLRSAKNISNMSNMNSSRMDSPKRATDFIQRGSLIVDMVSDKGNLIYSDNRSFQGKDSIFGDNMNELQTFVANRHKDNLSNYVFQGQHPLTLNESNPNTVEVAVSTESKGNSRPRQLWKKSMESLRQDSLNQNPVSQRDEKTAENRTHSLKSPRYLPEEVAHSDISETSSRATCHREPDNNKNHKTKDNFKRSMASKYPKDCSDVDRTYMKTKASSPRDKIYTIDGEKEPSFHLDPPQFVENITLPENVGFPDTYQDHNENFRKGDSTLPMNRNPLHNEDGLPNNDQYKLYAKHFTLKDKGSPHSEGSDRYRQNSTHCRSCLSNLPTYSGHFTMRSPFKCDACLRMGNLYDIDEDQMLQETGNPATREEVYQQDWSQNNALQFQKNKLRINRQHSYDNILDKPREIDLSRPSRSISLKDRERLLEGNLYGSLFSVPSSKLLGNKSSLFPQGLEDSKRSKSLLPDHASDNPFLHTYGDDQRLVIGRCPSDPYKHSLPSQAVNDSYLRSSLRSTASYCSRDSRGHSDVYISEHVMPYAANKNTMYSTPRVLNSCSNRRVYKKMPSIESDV
Please respond with reported pIC50 for every item in the list.
On this scale, pIC50 is minus log10 of a concentration expressed in M (mol/L).

Task: Endpoint output: pIC50 of O=C(O)CCC(=O)N1N=C(c2c(-c3ccc(F)cc3)c3ccccc3[nH]c2=O)CC1c1ccc(Cl)cc1 (stereo not drawn) . Value?
Output: 4.68

Task: Follow-up entry: O=C(O)CCCC(=O)N1N=C(c2c(-c3ccc(Br)cc3)c3ccccc3[nH]c2=O)CC1c1ccc(Cl)cc1 (stereo not drawn)
Output: 5.00

Task: Follow-up entry: Cc1cccc(-c2c(C3=NN(C(=O)CCC(=O)O)C(c4ccc(Cl)cc4)C3)c(=O)[nH]c3ccccc23)c1 (stereo not drawn)
Output: 4.62

Task: Follow-up entry: O=C(O)CCC(=O)N1N=C(c2c(-c3ccc(Cl)c(F)c3)c3ccccc3[nH]c2=O)CC1c1ccc(Cl)cc1 (stereo not drawn)
Output: 4.92

Task: Follow-up entry: O=C(O)CCC(=O)N1N=C(c2c(-c3ccc(F)c(F)c3)c3ccccc3[nH]c2=O)CC1c1ccc(Cl)cc1 (stereo not drawn)
Output: 4.68

Task: Follow-up entry: O=C(O)CCC(=O)N1N=C(c2c(-c3ccc(Br)cc3)c3ccccc3[nH]c2=O)CC1c1ccc(F)cc1 (stereo not drawn)
Output: 4.47

Task: Follow-up entry: O=C(O)CCC(=O)N1N=C(c2c(-c3ccc(Br)cc3)c3ccccc3[nH]c2=O)CC1c1ccc(Cl)cc1 (stereo not drawn)
Output: 5.00

Task: Follow-up entry: O=C(O)CCCC(=O)N1N=C(c2c(-c3ccccc3)c3cc(Cl)ccc3[nH]c2=O)CC1c1ccc([N+](=O)[O-])cc1 (stereo not drawn)
Output: 3.96

Task: Follow-up entry: O=C(O)CCC(=O)N1N=C(c2c(-c3cccc(C(F)(F)F)c3)c3ccccc3[nH]c2=O)CC1c1ccc(Cl)cc1 (stereo not drawn)
Output: 4.55

Task: Follow-up entry: O=C(O)CCC(=O)N1N=C(c2c(-c3ccc(F)c(Cl)c3)c3ccccc3[nH]c2=O)CC1c1ccc(Cl)cc1 (stereo not drawn)
Output: 4.72

Task: Follow-up entry: O=C(O)CCC(=O)N1N=C(c2c(-c3ccc(Cl)c(Cl)c3)c3ccccc3[nH]c2=O)CC1c1ccc(Cl)cc1 (stereo not drawn)
Output: 5.11

Task: Follow-up entry: O=C(O)CCC(=O)N1N=C(c2c(-c3ccc(Br)cc3)c3ccccc3[nH]c2=O)CC1c1ccc(Br)cc1 (stereo not drawn)
Output: 4.89

Task: Follow-up entry: O=C(O)CCC(=O)N1N=C(c2c(-c3ccc(Cl)cc3)c3ccccc3[nH]c2=O)CC1c1ccc(Cl)cc1 (racemic)
Output: 4.68
